System: DU-145 prostate
Experiment: NCI-60 one-dose screen, 48 h (100 = growth as untreated, 0 = no growth, -100 = all killed)
Details: 10 µM unless noted
This is part of a sample that, as a whole, favours compounds with a hit. Of some 83,000 tested, about 20% had one in any assay.
growth for assorted molecules
Quick reminder: number only, in %, skip the unit.

Observe how each entry below is paired with its result.
>  <Molecule>
Cc1cc(N2CCOCC2)nc(N(CCCNc2ccnc3cc(Cl)ccc23)Cc2ccc3c(c2)OCO3)n1

>  <Target desc>
DU-145 prostate

>  <growth, %>
20.3

$$$$
>  <Molecule>
O=C(O)CCCN1C(=O)CSC1=S

>  <Target desc>
DU-145 prostate

>  <growth, %>
107

$$$$
>  <Molecule>
COc1ccc(-c2csc(NC(=O)CSc3nc(C)cc(=O)[nH]3)n2)cc1

>  <Target desc>
DU-145 prostate

>  <growth, %>
106

$$$$
>  <Molecule>
Cc1cc2nc(C(Cl)Cl)nc(-c3ccccc3)n2n1

>  <Target desc>
DU-145 prostate

>  <growth, %>
-6.97

$$$$
>  <Molecule>
C1=C2CCCC3=Cc4ccccc4OC23Oc2ccccc21

>  <Target desc>
DU-145 prostate

>  <growth, %>
28.1

$$$$

Input line: Which growth is listed for CCOc1ccc(-c2cc(C3(S(=O)(=O)c4ccc(C)cc4)CC=CC3)on2)cc1 ?
Output line: 101

Input line: Which growth is listed for CN(Cc1ccccc1)c1nc(Cl)c(C2CC(c3ccc(Cl)cc3)=NN2c2cc(Cl)cc(Cl)c2)s1 (stereo unspecified) ?
Output line: 109

Input line: Which growth is listed for Cc1ccc(S(=O)(=O)N(CCC(=O)O)c2ccccc2)cc1 ?
Output line: 111

Input line: Which growth is listed for CCCCCC(C)(O)C(C(=O)O)c1ccccc1 (stereo unspecified) ?
Output line: 114

Input line: Which growth is listed for CSc1nc(CC(C)C)c(C#N)c(=O)n1C ?
Output line: 70.7

Input line: Which growth is listed for C#Cc1ccc(NC(=O)Cc2ccc(/C=C/C(=O)c3nccn3C)cc2)cc1 ?
Output line: 12.6

Values were extracted from PubChem BioAssay (NCI).
